Test system: Rattus norvegicus
Assay: Antiinflammatory activity in po dosed rat assessed as inhibition of carrageenan-induced paw edema compound administered 1 hr prior challenge measured 3 hrs post challenge
Assay type: functional

compound: C/C(=N\OCC(=O)N(C)C)c1ccc(Cl)cc1
ED50, mg/kg: 120

compound: C/C(=N\OCC(=O)O)c1ccc(C(F)(F)F)cc1
ED50, mg/kg: 120

compound: C/C(=N\OCC(=O)OCCCCCCN(C)C)c1ccc(Cl)cc1
ED50, mg/kg: 66

compound: C/C(=N\OCC(=O)OCCN1CCOCC1)c1ccc(Cl)cc1.Cl
ED50, mg/kg: 44

compound: CNCCOC(=O)CO/N=C(\C)c1ccc(Cl)cc1.Cl
ED50, mg/kg: 26

compound: C/C(=N\OCCO)c1ccc(Cl)cc1
ED50, mg/kg: 29

compound: C/C(=N\OCC(=O)OCCNC1CCCCC1)c1ccc(Cl)cc1.Cl
ED50, mg/kg: 26

compound: C/C(=N\OC(C)(C)C(=O)O)c1ccc(Cl)cc1
ED50, mg/kg: 42

compound: O=C(O)CO/N=C/c1ccc(Br)cc1
ED50, mg/kg: 46

compound: C/C(=N\OCC(=O)OCCN1CCN(C)CC1)c1ccc(Cl)cc1.Cl
ED50, mg/kg: 54

compound: C/C(=N\OCC(=O)O)c1ccc(Cl)cc1
ED50, mg/kg: 28

compound: C/C(=N\OCC(=O)O)c1ccc(Cl)s1
ED50, mg/kg: 34

compound: C/C(=N\OC(C)C(=O)O)c1ccc(Cl)cc1 (stereo unspecified)
ED50, mg/kg: 55

compound: C/C(=N\OCC(N)=O)c1ccc(Br)cc1
ED50, mg/kg: 62

compound: C/C(=N\OCCCC(=O)O)c1ccc(Cl)cc1
ED50, mg/kg: 58

compound: C/C(=N\OCC(=O)O)c1ccc(F)cc1
ED50, mg/kg: 85

compound: C/C(=N\OCC(=O)O)c1ccc(Br)cc1
ED50, mg/kg: 27

compound: C/C(=C\CC(=O)O)c1ccc(Cl)cc1
ED50, mg/kg: 70

compound: C/C(=N\OCC(=O)OCCN(C)C)c1ccc(Cl)cc1 [CLOXIMATE]
ED50, mg/kg: 34

compound: CNC(=O)CO/N=C(\C)c1ccc(Cl)cc1
ED50, mg/kg: 70

compound: CCCCC1C(=O)N(c2ccccc2)N(c2ccccc2)C1=O [PHENYLBUTAZONE]
ED50, mg/kg: 34

compound: C/C(=N\OCC(=O)OCCN(C)C)c1ccc(Br)cc1
ED50, mg/kg: 47

compound: CCOC(=O)CO/N=C(\C)c1ccc(Cl)cc1
ED50, mg/kg: 32

compound: CC(=O)OCCO/N=C(\C)c1ccc(Cl)cc1
ED50, mg/kg: 43

compound: C/C(=N\OCC(N)=O)c1ccc(Cl)c(Cl)c1
ED50, mg/kg: 55

compound: OCCO/N=C/c1ccc(Cl)cc1
ED50, mg/kg: 90

* * *

Experiment: Toxicity in po dosed mouse
Assay type: organism-based
Settings: in vivo
endpoint-label: LD50

compound: C/C(=N\OCC(=O)OCCN(C)C)c1ccc(Cl)cc1 [CLOXIMATE]
endpoint-label: LD50
result: > 1000 mg/kg

* * *

Experiment: Toxicity in ip dosed mouse
Type: organism-based
Settings: in vivo

molecule: C/C(=N\OCC(=O)OCCN(C)C)c1ccc(Cl)cc1 [CLOXIMATE]
LD50: > 320 mg/kg
